Hey, just so you know, these numbers are from the supplement of paper PMC11208160.

Some sequences, each annotated with its measured recombinant barcode read abundance (log10).
# measurementDescription: recombinant barcode read abundance after kanamycin selection (control-corrected) (log10(CPM+1)); higher = more efficient recombination; sequences stand for … in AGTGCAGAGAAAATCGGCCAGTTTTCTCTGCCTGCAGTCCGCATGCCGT…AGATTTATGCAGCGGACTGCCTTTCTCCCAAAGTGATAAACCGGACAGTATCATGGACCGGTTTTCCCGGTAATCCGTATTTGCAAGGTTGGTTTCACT; site = the 11-nt target;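 also: IS621 recombinase and bridge RNA in Escherichia coli cells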
readoutKind: recombinant barcode read abundance (log10)

monomerSequence	result
CTCCGGTCTTGGGTTCTAACCTGTTGCTT (site CTCCGGTCTAA)	1.77
GTGGACTCTTGGGTTCTAACCTGTTGCTA (site GTGGACTCTTA)	2.44
CCGTTATCTTGGGTTCTAACCTGTTGCCT (site CCGTTATCTAG)	0.0274
CGGACTTCTTGGGTTCTAACCTGTTGCCT (site CTGACTTCTAG)	0.0412
TCACGGACTTGGGTTCTAACCTGTTGCCT (site TCGCGGACTAG)	0.0352
